# System: E. coli ATCC 25922
# assay.method.text: microbe, parasite or virus in culture
# details: Escherichia coli, ATCC25922, 24 h, Corning TC; MH + 2% LHB; no additive; n = 2
value.kind: MIC (µg/mL)
One number for each entry, in µg/mL.

A selection of reference data follows.
INSERT INTO measurements (molecule, units_of_measure, test_result) VALUES
  ('COc1cc(Cc2cnc(N)nc2N)cc(OC)c1OC [Trimethoprim, trimethoprim]', 'µg/mL', 1),
  ('CC1(C)S[C@@H]2[C@H](NC(=O)Cc3ccccc3)C(=O)N2[C@H]1C(=O)O [Penicillin G, penicillin G]', 'µg/mL', 64);

In the following, a different molecule is considered.
Req: Any idea what MIC was measured for CO[C@H]1/C=C/O[C@@]2(C)Oc3c(C)c(O)c4c(O)c(c(/C=N/N5CCN(C)CC5)c(O)c4c3C2=O)NC(=O)/C(C)=C\C=C\[C@H](C)[C@H](O)[C@@H](C)[C@@H](O)[C@@H](C)[C@H](OC(C)=O)[C@@H]1C [Rifampin, rifampin] ?
Resp: 8

###

# Test system: K. pneumoniae ATCC 13883
# assay.method.text: microbe, parasite or virus in culture
# details: Klebsiella pneumoniae, ATCC13883, Corning TC; MHB -T80; n = 2
I'd appreciate it if you could supply MIC values for the items below.

INSERT INTO assay_data (smiles_record, value_kind, test_result) VALUES
  ('CC1(C)S[C@@H]2[C@H](NC(=O)Cc3ccccc3)C(=O)N2[C@H]1C(=O)O', 'MIC', '> 64 µg/mL');

Each of the following entries comes with a recorded value; kindly state MIC for each.
1. CO[C@H]1/C=C/O[C@@]2(C)Oc3c(C)c(O)c4c(O)c(c(/C=N/N5CCN(C)CC5)c(O)c4c3C2=O)NC(=O)/C(C)=C\C=C\[C@H](C)[C@H](O)[C@@H](C)[C@@H](O)[C@@H](C)[C@H](OC(C)=O)[C@@H]1C
2. COc1cc(Cc2cnc(N)nc2N)cc(OC)c1OC
3. Cc1onc(-c2ccccc2)c1C(=O)N[C@@H]1C(=O)N2[C@@H]1SC(C)(C)[C@@H]2C(=O)O

Resp:
16 µg/mL
4 to 16 µg/mL
> 64 µg/mL

###

# Test system: E. coli ATCC 25922
# assay.method.text: microbe, parasite or virus in culture
# details: Escherichia coli, ATCC25922, 24 h, Corning PS; MH + T80; 2% LS; n = 2
value.kind: MIC

INSERT INTO results (molecule, measurement_target, test_result) VALUES
  ('CC1(C)S[C@@H]2[C@H](NC(=O)Cc3ccccc3)C(=O)N2[C@H]1C(=O)O [Penicillin G, penicillin G]', 'E. coli ATCC 25922', '32 to 64 µg/mL'),
  ('Cc1onc(-c2ccccc2)c1C(=O)N[C@@H]1C(=O)N2[C@@H]1SC(C)(C)[C@@H]2C(=O)O [Oxacillin, oxacillin]', 'E. coli ATCC 25922', '> 64 µg/mL'),
  ('COc1cc(Cc2cnc(N)nc2N)cc(OC)c1OC [Trimethoprim, trimethoprim]', 'E. coli ATCC 25922', '1 to 2 µg/mL'),
  ('O=C(O)c1cn(C2CC2)c2cc(N3CCNCC3)c(F)cc2c1=O [Ciprofloxacin, ciprofloxacin]', 'E. coli ATCC 25922', '≤ 0.03 µg/mL');

Req: Any idea what MIC was measured for CO[C@H]1/C=C/O[C@@]2(C)Oc3c(C)c(O)c4c(O)c(c(/C=N/N5CCN(C)CC5)c(O)c4c3C2=O)NC(=O)/C(C)=C\C=C\[C@H](C)[C@H](O)[C@@H](C)[C@@H](O)[C@@H](C)[C@H](OC(C)=O)[C@@H]1C [Rifampin, rifampin] ?
Resp: 4 to 8 µg/mL
